// provenance: ChEMBL document CHEMBL1154718

# subjectOfTest: Methionine aminopeptidase 2 (Homo sapiens) (UniProt P50579)
# Sequence (P50579 2-478 limits assumed): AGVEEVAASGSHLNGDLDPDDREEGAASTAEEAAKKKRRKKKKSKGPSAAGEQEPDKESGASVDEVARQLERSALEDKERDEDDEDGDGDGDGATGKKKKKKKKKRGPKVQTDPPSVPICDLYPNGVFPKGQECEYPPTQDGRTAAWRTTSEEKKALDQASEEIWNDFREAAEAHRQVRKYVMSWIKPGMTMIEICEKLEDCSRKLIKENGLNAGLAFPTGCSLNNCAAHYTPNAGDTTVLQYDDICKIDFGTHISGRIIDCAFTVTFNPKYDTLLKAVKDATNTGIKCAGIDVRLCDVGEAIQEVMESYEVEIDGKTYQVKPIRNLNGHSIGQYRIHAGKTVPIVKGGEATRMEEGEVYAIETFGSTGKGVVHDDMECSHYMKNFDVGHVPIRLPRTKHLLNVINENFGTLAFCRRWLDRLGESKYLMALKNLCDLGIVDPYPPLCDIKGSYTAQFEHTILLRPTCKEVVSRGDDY
# testName: Inhibition of MetAP2 assessed as remaining enzyme activity at 200 nM after 8 hrs relative to untreated control
propertyMeasured: Activity (%)

[
  {
    "molecule": "CO[C@H]1C([C@@]2(C)O[C@@H]2CC=C(C)C)[C@]2(CC[C@H]1OC(=O)NCCC1CCC[N+]1(C)C)CO2 (single isomer, unassigned)",
    "observed": 6.3
  },
  {
    "molecule": "CO[C@H]1C([C@@]2(C)O[C@@H]2CC=C(C)C)[C@]2(CC[C@H]1OC(=O)NCCN1CCCC1)CO2 (single isomer, unassigned)",
    "observed": 3.5
  },
  {
    "molecule": "CO[C@H]1C([C@@]2(C)O[C@@H]2CC=C(C)C)[C@]2(CC[C@H]1OC(=O)NCCC1CCCN1C)CO2 (single isomer, unassigned)",
    "observed": 5.4
  },
  {
    "molecule": "CO[C@H]1C([C@@]2(C)O[C@@H]2CC=C(C)C)[C@]2(CC[C@H]1OC(=O)NCc1ccc(C(=O)O)cc1)CO2 (single isomer, unassigned)",
    "observed": 3.5
  },
  {
    "molecule": "CO[C@H]1[C@@H]([C@@]2(C)O[C@@H]2CC=C(C)C)[C@]2(CC[C@H]1OC(=O)N[C@@H](C(=O)NCCC1CCCN1C)C(C)C)CO2 (stereo not given in full)",
    "observed": 4.5
  },
  {
    "molecule": "CO[C@H]1C([C@@]2(C)O[C@@H]2CC=C(C)C)[C@]2(CC[C@H]1OC(=O)N1CCC(C(=O)O)CC1)CO2 (single isomer, unassigned)",
    "observed": 8.3
  },
  {
    "molecule": "CO[C@H]1C([C@@]2(C)O[C@@H]2CC=C(C)C)[C@]2(CC[C@H]1OC(=O)NC1(C(N)=O)CCCC1)CO2 (single isomer, unassigned)",
    "observed": 13
  },
  {
    "molecule": "CO[C@H]1C([C@@]2(C)O[C@@H]2CC=C(C)C)[C@]2(CC[C@H]1OC(=O)NN1CCOCC1)CO2 (single isomer, unassigned)",
    "observed": 5.7
  },
  {
    "molecule": "CO[C@H]1C([C@@]2(C)O[C@@H]2CC=C(C)C)[C@]2(CC[C@H]1OC(=O)NC(C)C)CO2 (single isomer, unassigned)",
    "observed": 3
  },
  {
    "molecule": "CO[C@H]1C([C@@]2(C)O[C@@H]2CC=C(C)C)[C@]2(CC[C@H]1OC(=O)NCCC[N+](C)(C)C)CO2 (single isomer, unassigned)",
    "observed": 5.4
  }
]
